# target-under-test: Tyrosine-protein kinase BTK (Homo sapiens, UniProt Q06187)
# Sequence (Q06187 whole entry, the tested form may be a part): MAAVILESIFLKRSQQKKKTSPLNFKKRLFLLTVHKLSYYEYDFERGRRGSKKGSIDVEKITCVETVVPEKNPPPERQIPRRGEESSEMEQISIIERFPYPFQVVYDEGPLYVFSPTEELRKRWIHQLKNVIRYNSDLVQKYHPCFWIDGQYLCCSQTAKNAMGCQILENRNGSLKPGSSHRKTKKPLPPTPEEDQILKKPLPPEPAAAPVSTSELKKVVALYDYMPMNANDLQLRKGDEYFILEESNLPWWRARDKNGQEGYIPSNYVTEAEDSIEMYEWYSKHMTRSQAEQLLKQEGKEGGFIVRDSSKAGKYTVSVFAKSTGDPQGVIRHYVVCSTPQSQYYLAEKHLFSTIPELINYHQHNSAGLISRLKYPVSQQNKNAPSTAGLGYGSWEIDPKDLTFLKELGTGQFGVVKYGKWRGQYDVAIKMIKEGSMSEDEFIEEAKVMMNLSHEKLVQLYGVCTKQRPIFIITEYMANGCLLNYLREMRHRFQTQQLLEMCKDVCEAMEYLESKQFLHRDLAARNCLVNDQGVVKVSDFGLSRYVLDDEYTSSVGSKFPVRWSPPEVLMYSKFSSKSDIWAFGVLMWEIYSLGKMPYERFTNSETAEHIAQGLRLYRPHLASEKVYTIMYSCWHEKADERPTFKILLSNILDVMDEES
# measurement-notes: Inhibition of full-length N-terminal GST tagged BTK (2 to 659 residues) (unknown origin) expressed in Sf21 insect cells using NH2-ETVYSEVRK-biotin as substrate preincubated for 1 hr followed by ATP addition and measured after 2 hrs by ELISA
pIC50: −log10 of the molar value.
Reported pIC50 values for the following compounds.
outcome-measure: pIC50

compound=CCc1ccnc(NC(=O)c2ccc(-c3nc([C@@H]4CCCCN4C(=O)C=C(C)C)n(N)c3C(N)=O)cc2)c1 outcome_measure=pIC50 reading_qualifier=< value_observed=5.00
compound=C=CC(=O)N1CCCC[C@H]1c1nc(-c2ccc(C(=O)Nc3ccccc3)cc2)c(C(N)=O)n1N outcome_measure=pIC50 reading_qualifier== value_observed=6.24
compound=C/C=C/C(=O)N1CCCC[C@H]1c1nc(-c2ccc(C(=O)Nc3cc(CC)ccn3)cc2)c(C(N)=O)n1N outcome_measure=pIC50 reading_qualifier=< value_observed=5.00
compound=C=CC(=O)N1CCCC[C@H]1c1nc(-c2ccc(C(=O)Nc3cccnc3)cc2)c(C(N)=O)n1N outcome_measure=pIC50 reading_qualifier=< value_observed=5.00
compound=C=CC(=O)N1CCCC[C@H]1c1nc(-c2ccc(C(=O)Nc3cc(CC)ccn3)cc2)c(C(N)=O)n1N outcome_measure=pIC50 reading_qualifier== value_observed=7.95
compound=CC/C=C/C(=O)N1CCCC[C@H]1c1nc(-c2ccc(C(=O)Nc3cc(CC)ccn3)cc2)c(C(N)=O)n1N outcome_measure=pIC50 reading_qualifier=< value_observed=5.00
compound=C=CC(=O)N1CCCC[C@H]1c1nc(-c2ccc(C(=O)Nc3cc(C(F)(F)F)ccn3)cc2)c(C(N)=O)n1N outcome_measure=pIC50 reading_qualifier== value_observed=8.57
compound=C=CC(=O)N1CCCC[C@H]1c1nc(-c2ccc(C(=O)Nc3cc(C(F)(F)F)ccn3)cc2)c(C(=O)OCC)n1N outcome_measure=pIC50 reading_qualifier== value_observed=5.29
compound=C=C(C)C(=O)N1CCCC[C@H]1c1nc(-c2ccc(C(=O)Nc3cc(CC)ccn3)cc2)c(C(N)=O)n1N outcome_measure=pIC50 reading_qualifier=< value_observed=5.00
compound=CCc1ccnc(NC(=O)c2ccc(-c3nc([C@@H]4CCCCN4C(=O)/C(C#N)=C/C(C)C)n(N)c3C(N)=O)cc2)c1 outcome_measure=pIC50 reading_qualifier=< value_observed=5.00
compound=C#CC(=O)N1CCCC[C@H]1c1nc(-c2ccc(C(=O)Nc3cc(CC)ccn3)cc2)c(C(N)=O)n1N outcome_measure=pIC50 reading_qualifier== value_observed=8.00
compound=C=CC(=O)N1CCC[C@H]1c1nc(-c2ccc(C(=O)Nc3cc(CC)ccn3)cc2)c(C(N)=O)n1N outcome_measure=pIC50 reading_qualifier== value_observed=7.41
compound=C=CC(=O)N1CCCCC[C@H]1c1nc(-c2ccc(C(=O)Nc3cc(CC)ccn3)cc2)c(C(N)=O)n1N outcome_measure=pIC50 reading_qualifier== value_observed=6.65
compound=C=CC(=O)N1CCCC[C@H]1c1nc(-c2ccc(C(=O)Nc3cc(C#N)ccn3)cc2)c(C(N)=O)n1N outcome_measure=pIC50 reading_qualifier== value_observed=7.77
compound=CCc1ccnc(NC(=O)c2ccc(-c3nc([C@@H]4CCCCN4C(=O)/C(C#N)=C/C4CC4)n(N)c3C(N)=O)cc2)c1 outcome_measure=pIC50 reading_qualifier=< value_observed=5.00
compound=CCC(=O)N1CCCC[C@H]1c1nc(-c2ccc(C(=O)Nc3cc(C(F)(F)F)ccn3)cc2)c(C(N)=O)n1N outcome_measure=pIC50 reading_qualifier== value_observed=5.32
compound=C=CC(=O)N1CCC[C@@H](c2nc(-c3ccc(C(=O)Nc4cc(CC)ccn4)cc3)c(C(N)=O)n2N)C1 outcome_measure=pIC50 reading_qualifier== value_observed=7.72
